Numbers sourced from patent US20170369590A1.

- SYSTEM_UNDER_TEST: human epidermal growth factor receptor 2 (HER2), membrane-bound on cells (human, UniProt P04626 23-1255)
- METHOD: FACS binding; A431 cells
We label by threshold. Values of EC50 strictly beneath 0.3 µg/mL are YES. Values of 0.3 µg/mL and up are NO.

BINDER | CLASS_LABEL
HuMab 129 (antibody, V domains shown) VH: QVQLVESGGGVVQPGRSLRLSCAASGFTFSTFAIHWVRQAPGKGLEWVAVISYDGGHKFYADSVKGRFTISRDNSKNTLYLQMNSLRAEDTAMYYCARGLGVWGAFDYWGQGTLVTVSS VL: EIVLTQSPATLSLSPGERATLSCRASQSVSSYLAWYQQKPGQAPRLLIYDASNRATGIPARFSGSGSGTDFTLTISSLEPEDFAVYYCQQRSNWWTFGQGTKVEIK | NO
HuMab 132 (antibody, V domains shown) VH: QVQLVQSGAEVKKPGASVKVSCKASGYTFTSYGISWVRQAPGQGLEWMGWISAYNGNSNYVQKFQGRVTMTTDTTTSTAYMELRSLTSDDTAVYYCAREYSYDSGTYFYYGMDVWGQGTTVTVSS VL: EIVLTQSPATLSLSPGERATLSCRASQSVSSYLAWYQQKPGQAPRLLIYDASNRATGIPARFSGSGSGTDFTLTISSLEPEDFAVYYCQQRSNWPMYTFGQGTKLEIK | YES
HuMab 084 (antibody, V domains shown) VH: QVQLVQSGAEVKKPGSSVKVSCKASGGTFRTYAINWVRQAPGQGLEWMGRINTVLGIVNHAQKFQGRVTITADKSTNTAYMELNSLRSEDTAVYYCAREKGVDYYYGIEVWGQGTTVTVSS VL: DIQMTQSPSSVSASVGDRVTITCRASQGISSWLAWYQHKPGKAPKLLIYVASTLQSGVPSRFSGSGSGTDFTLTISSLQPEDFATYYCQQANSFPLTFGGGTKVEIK | NO
HuMab 098 (antibody, V domains shown) VH: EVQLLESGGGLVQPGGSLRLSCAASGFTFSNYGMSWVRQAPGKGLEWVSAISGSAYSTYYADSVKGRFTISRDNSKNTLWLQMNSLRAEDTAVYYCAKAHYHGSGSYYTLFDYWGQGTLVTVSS VL: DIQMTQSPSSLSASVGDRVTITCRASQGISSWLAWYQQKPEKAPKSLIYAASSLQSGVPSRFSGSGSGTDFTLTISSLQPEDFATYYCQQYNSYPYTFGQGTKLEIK | YES
HuMab 025 (antibody, V domains shown) VH: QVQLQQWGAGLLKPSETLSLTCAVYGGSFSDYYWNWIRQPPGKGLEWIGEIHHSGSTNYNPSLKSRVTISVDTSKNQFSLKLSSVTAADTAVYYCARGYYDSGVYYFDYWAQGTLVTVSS VL: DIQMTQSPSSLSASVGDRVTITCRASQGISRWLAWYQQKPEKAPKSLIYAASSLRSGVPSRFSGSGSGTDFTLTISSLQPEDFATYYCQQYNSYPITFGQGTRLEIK | YES
HuMab 159 (antibody, V domains shown) VH: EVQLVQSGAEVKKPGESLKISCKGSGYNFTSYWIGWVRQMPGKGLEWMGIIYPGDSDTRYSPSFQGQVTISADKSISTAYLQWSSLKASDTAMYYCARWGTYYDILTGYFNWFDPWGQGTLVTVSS VL: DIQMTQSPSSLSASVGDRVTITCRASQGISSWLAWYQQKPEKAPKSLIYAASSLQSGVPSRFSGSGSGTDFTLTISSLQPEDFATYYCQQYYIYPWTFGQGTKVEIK | NO

Shift focus to the following entry.
Please check: EC50 for HuMab 127 (antibody, V domains shown) VH: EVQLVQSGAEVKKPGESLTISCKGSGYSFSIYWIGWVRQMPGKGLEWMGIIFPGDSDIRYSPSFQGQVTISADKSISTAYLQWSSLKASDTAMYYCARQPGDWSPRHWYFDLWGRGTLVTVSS VL: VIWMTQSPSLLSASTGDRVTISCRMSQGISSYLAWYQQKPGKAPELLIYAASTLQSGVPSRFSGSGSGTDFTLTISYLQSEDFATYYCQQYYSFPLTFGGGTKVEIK , strictly under 0.3 µg/mL or not?
YES
